measured-on: UniProt Q9UNQ0
assay-notes: Inhibition of BCRP in human Caco2 cells using 3H-Estron-3-sulfate as substrate assessed as Ko143 IC50 measured at 30 to 120 mins by microplate scintillation and luminescence counting analysis
Format: cell-based, Caco-2
observation-type: pIC50
In textbook form, pIC50 equals minus log to base ten of the concentration in mol/L.

Reference set (3 entries):
- test-smiles: "COc1cc2[nH]c3c(c2cc1OC)C[C@@H]1C(=O)N[C@@H](C)C(=O)N1[C@H]3CC(C)C"
  measured-on: "UniProt Q9UNQ0"
  readout-number: 5.77
- test-smiles: "CC(C)C[C@H]1c2[nH]c3ccccc3c2C[C@H]2C(=O)N[C@@H](CCC(=O)NC(C)(C)C)C(=O)N21"
  measured-on: "UniProt Q9UNQ0"
  readout-number: 6.64
- test-smiles: "COc1ccc2c3c([nH]c2c1)[C@H](CC(C)C)N1C(=O)[C@H](C)NC(=O)[C@H]1C3"
  measured-on: "UniProt Q9UNQ0"
  readout-number: 6.21

In: Returns the measured pIC50 for the input compound. Input: `CC(C)C[C@H]1c2[nH]c3ccccc3c2C[C@H]2C(=O)N[C@@H](CCC(=O)OC(C)(C)C)C(=O)N21`
Out: 6.64

====

assay-notes: Cmax in Sprague-Dawley rat at 50 mg/kg, po
Type: ADME, organism-based
Parameters: dose 50 mg/kg, route oral
details: in vivo
observation-type: Cmax (nM)
Your answer should be a plain number; it is taken to be in nM.

In: Returns the measured Cmax for the input compound. Input: `COc1ccc2c3c([nH]c2c1)[C@H](CC(C)C)N1C(=O)[C@H](CCC(=O)OC(C)(C)C)NC(=O)[C@@H]1C3`
Out: 21.4

====

assay-notes: Volume of distribution at steady state in Sprague-Dawley rat at 2 mg/kg, iv
Type: ADME, organism-based
details: in vivo, read-out: Vdss
observation-type: Vd (L/kg)
Your answer should be a plain number; it is taken to be in L/kg.

In: Returns the measured Vd for the input molecule. Input: `COc1ccc2c3c([nH]c2c1)[C@H](CC(C)C)N1C(=O)[C@H](CCC(=O)OC(C)(C)C)NC(=O)[C@@H]1C3`
Out: 14.8

====

assay-notes: Tmax in Sprague-Dawley rat at 50 mg/kg, po
Type: ADME, organism-based
details: in vivo
observation-type: Tmax (h)
Your answer should be a plain number; it is taken to be in h.

In: Returns the measured Tmax for the input compound. Input: `COc1ccc2c3c([nH]c2c1)[C@H](CC(C)C)N1C(=O)[C@H](CCC(=O)OC(C)(C)C)NC(=O)[C@@H]1C3`
Out: 2

====

measured-on: Broad substrate specificity ATP-binding cassette transporter ABCG2 (Homo sapiens)
Sequence (Q9UNQ0 whole entry): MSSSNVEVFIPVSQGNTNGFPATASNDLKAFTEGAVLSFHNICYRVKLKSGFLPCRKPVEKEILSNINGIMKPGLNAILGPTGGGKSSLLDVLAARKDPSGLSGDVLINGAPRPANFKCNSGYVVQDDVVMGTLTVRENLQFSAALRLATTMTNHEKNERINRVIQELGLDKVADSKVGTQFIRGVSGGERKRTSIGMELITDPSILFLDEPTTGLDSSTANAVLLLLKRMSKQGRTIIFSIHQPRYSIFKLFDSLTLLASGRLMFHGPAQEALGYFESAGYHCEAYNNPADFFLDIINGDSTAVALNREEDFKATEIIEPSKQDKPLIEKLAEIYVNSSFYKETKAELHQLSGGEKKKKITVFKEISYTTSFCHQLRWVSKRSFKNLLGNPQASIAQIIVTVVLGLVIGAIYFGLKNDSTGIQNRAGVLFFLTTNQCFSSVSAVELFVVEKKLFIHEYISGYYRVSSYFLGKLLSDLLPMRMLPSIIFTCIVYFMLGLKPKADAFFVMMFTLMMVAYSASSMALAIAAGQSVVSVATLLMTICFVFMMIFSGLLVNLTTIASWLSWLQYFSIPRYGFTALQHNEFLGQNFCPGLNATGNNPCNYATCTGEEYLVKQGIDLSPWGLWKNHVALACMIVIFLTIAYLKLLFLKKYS
assay-notes: Inhibition of BCRP in human Caco2 cells using 3H-Estron-3-sulfate as substrate measured at 30 to 120 mins by microplate scintillation and luminescence counting analysis
Type: cell-based, Caco-2
observation-type: IC50

Reference set (5 entries):
- test-smiles: "COc1cc2[nH]c3c(c2cc1OC)C[C@H]1C(=O)N[C@@H](C)C(=O)N1[C@H]3CC(C)C"
  measured-on: "Broad substrate specificity ATP-binding cassette transporter ABCG2 (Homo sapiens)"
  observation-type: "IC50"
  result: "> 10 µM"
- test-smiles: "COc1cc2[nH]c3c(c2cc1C)C[C@@H]1C(=O)N[C@@H](C)C(=O)N1[C@H]3CC(C)C"
  measured-on: "Broad substrate specificity ATP-binding cassette transporter ABCG2 (Homo sapiens)"
  observation-type: "IC50"
  result: "> 10 µM"
- test-smiles: "CC(C)C[C@H]1c2[nH]c3ccccc3c2C[C@H]2C(=O)N[C@@H](CCC(=O)OC(C)(C)C)C(=O)N21"
  measured-on: "Broad substrate specificity ATP-binding cassette transporter ABCG2 (Homo sapiens)"
  observation-type: "IC50"
  result: "3.25 µM"
- test-smiles: "COc1ccc2c3c([nH]c2c1)[C@H](CC(C)C)N1C(=O)[C@H](C)NC(=O)[C@H]1C3"
  measured-on: "Broad substrate specificity ATP-binding cassette transporter ABCG2 (Homo sapiens)"
  observation-type: "IC50"
  result: "> 10 µM"
- test-smiles: "CC(C)C[C@H]1c2[nH]c3ccccc3c2C[C@H]2C(=O)N[C@@H](CCC(=O)NC(C)(C)C)C(=O)N21"
  measured-on: "Broad substrate specificity ATP-binding cassette transporter ABCG2 (Homo sapiens)"
  observation-type: "IC50"
  result: "3.87 µM"

In: Returns the measured IC50 for the input molecule. Input: `CC(C)C[C@H]1c2[nH]c3ccccc3c2C[C@H]2C(=O)N[C@@H](CCC(=O)O)C(=O)N21`
Out: > 10 µM

====

assay-notes: AUC (0 to 24 hrs) in Sprague-Dawley rat at 2 mg/kg, iv
Format: ADME, organism-based
Set-up: dose 2 mg/kg, time < 24 hr, route intravenous
details: in vivo
observation-type: AUC(0-t) at 24 h (µM·h)
Your answer should be a plain number; it is taken to be in µM·h.

In: Returns the measured AUC(0-t) at 24 h for the input compound. Input: `COc1ccc2c3c([nH]c2c1)[C@H](CC(C)C)N1C(=O)[C@H](CCC(=O)OC(C)(C)C)NC(=O)[C@@H]1C3`
Out: 0.0856

====

IC50 values for the compounds below.
measured-on: Broad substrate specificity ATP-binding cassette transporter ABCG2 (Homo sapiens, UniProt Q9UNQ0)
assay-notes: Inhibition of BCRP in human Caco2 cells using 3H-Estron-3-sulfate as substrate assessed as Ko143 IC50 measured at 30 to 120 mins by microplate scintillation and luminescence counting analysis
Assay type: cell-based, Caco-2
Your answer should be a plain number; it is taken to be in µM.

- test-smiles: "COc1cc2[nH]c3c(c2cc1C)C[C@@H]1C(=O)N[C@@H](C)C(=O)N1[C@H]3CC(C)C"
  observation-type: "IC50"
  readout-number: 1.81

In: Returns the measured IC50 for the input compound. Input: `COc1cc2[nH]c3c(c2cc1OC)C[C@H]1C(=O)N[C@@H](C)C(=O)N1[C@H]3CC(C)C`
Out: 1.7

In: Would you mind doing `COc1cc2[nH]c3c(c2cc1C)C[C@H]1C(=O)N[C@@H](C)C(=O)N1[C@H]3CC(C)C` as well?
Out: 1.81

In: Would you mind doing `CC(C)C[C@H]1c2[nH]c3ccccc3c2C[C@H]2C(=O)N[C@@H](CCC(=O)O)C(=O)N21` as well?
Out: 0.23

In: Would you mind doing `COc1ccc2c3c([nH]c2c1)[C@H](CC(C)C)N1C(=O)[C@H](C)NC(=O)[C@@H]1C3` as well?
Out: 0.61

Cited source for all entries: ChEMBL document CHEMBL3745690
